The measurements presented in this section are drawn from patent US20230303719.

# target: 3E10-D31N IgG4 S228P/F234A/L235A (synthetic construct, UniProt P01861; SEQ:1-443,SEQ:1-218)
# Sequence (P01861 other isoform, or with tags, fused parts or gaps D31N S228P F234A L235A D31N S228P F234A L235A, chain 1 of 2): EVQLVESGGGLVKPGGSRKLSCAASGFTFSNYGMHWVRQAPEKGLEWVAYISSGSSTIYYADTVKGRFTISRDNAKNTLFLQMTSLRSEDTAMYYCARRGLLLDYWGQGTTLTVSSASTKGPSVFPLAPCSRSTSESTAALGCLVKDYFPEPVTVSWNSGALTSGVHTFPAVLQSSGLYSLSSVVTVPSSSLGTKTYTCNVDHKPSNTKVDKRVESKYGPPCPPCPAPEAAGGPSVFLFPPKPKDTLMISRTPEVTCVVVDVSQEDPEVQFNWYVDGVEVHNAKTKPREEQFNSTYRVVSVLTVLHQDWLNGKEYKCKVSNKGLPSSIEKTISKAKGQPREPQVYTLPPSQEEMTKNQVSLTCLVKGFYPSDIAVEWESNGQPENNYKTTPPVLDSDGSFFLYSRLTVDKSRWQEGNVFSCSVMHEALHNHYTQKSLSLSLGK
# Sequence (chain, as listed by the source D31N S228P F234A L235A D31N S228P F234A L235A, chain 2 of 2): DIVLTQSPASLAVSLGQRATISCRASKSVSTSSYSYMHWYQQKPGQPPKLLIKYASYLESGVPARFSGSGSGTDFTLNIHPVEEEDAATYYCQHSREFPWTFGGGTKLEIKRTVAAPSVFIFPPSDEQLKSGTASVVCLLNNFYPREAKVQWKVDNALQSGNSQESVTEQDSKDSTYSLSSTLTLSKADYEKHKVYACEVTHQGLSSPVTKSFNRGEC
# assay: BLI; 1:1 model; antibody on AHC2 sensor; RNA 62.5-500 nM
# assay.setup: tags: human IgG4 Fc; chain copies: 2 heavy + 2 light (inferred); hairpin
measured.endpoint: Kd (nM)

binder: 3p-hpRNA RIG-I agonist (89 nt) (ssRNA, 5'-triphosphate) RNA: GGAGCAAAAGCAGGGUGACAAAGACAUAAUGGAUCCAAACACUGUGUCAAGCUUUCAGGUAGAUUGCUUUCUUUGGCAUGUCCGCAAAC
unit.of.measure: nM
meas.value: 3.33
